B1: KLHL20 (parent)
chain: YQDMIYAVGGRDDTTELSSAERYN

# Variants of: B1
# assay.details: protein stability index of a GFP-peptide fusion (GPS, HEK-293T) (PSI 1-6); higher = more stable;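 further: lentivirally expressed fusions sorted by FACS into six bins by GFP to DsRed ratio, PSI derived from sequencing read proportions per bin multiplied by bin number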
# test.settings: c terminus: a fixed tail appended
property.name: protein stability index

residue_string="YQDMIYACGGRDDTTELSSAERYN [V8C]" value_reported=2.37
residue_string="YQDMIYAVGGRDDTTELESAERYN [S18E]" value_reported=2.02
residue_string="YQDLIYAVGGRDDTTELSSAERYN [M4L]" value_reported=2.31
residue_string="YQDMIYAVGGRDDTDELSSAERYN [T15D]" value_reported=2.49
residue_string="YQDMQYAVGGRDDTTELSSAERYN [I5Q]" value_reported=4.11
residue_string="YQDMIYAVGGRCDTTELSSAERYN [D12C]" value_reported=2.01
residue_string="YQDMIYAVGGFDDTTELSSAERYN [R11F]" value_reported=2.08
residue_string="YQDMIYAVGFRDDTTELSSAERYN [G10F]" value_reported=2.27
residue_string="YQFMIYAVGGRDDTTELSSAERYN [D3F]" value_reported=1.88
residue_string="YQDMIYAQGGRDDTTELSSAERYN [V8Q]" value_reported=2.6
residue_string="YQDMIYAVGGRDDTTELSSAERNN [Y23N]" value_reported=2.59
residue_string="YQDMIYAAGGRDDTTELSSAERYN [V8A]" value_reported=2.77
residue_string="YQDMIYYVGGRDDTTELSSAERYN [A7Y]" value_reported=2.27
residue_string="YQDMIYAVGGSDDTTELSSAERYN [R11S]" value_reported=2.9
residue_string="YQDMIYAVKGRDDTTELSSAERYN [G9K]" value_reported=2.07
residue_string="YQDMIYAVGGRDDVTELSSAERYN [T14V]" value_reported=2.25
residue_string="YQVMIYAVGGRDDTTELSSAERYN [D3V]" value_reported=1.86
residue_string="YQDMIYAYGGRDDTTELSSAERYN [V8Y]" value_reported=2.09
residue_string="YQDMIHAVGGRDDTTELSSAERYN [Y6H]" value_reported=3.27
residue_string="YQDMIYAVGGRDDMTELSSAERYN [T14M]" value_reported=2.01
residue_string="YQDMIYAVGGRDDTTEESSAERYN [L17E]" value_reported=2.58
residue_string="YQDKIYAVGGRDDTTELSSAERYN [M4K]" value_reported=2.65
residue_string="YQDMIYAVGGRDRTTELSSAERYN [D13R]" value_reported=1.75
residue_string="YQDMIYAVGGRDDTTELSSAMRYN [E21M]" value_reported=2.75
residue_string="YQDMIYAVGGRDDTTSLSSAERYN [E16S]" value_reported=1.91
residue_string="YQDMIYAVGGRDDTTELSSAEDYN [R22D]" value_reported=2.49
residue_string="YQTMIYAVGGRDDTTELSSAERYN [D3T]" value_reported=1.56
residue_string="YQDMIYAVGGRDDTTELSSAEAYN [R22A]" value_reported=2.45
residue_string="YQDMIYRVGGRDDTTELSSAERYN [A7R]" value_reported=1.76
residue_string="YQDMIYAVGGRDDTTELSSAERIN [Y23I]" value_reported=1.93
residue_string="YQDMIYAVGGRYDTTELSSAERYN [D12Y]" value_reported=1.9
residue_string="YQDMIYAVGGRDDTTECSSAERYN [L17C]" value_reported=2.52
residue_string="YQDTIYAVGGRDDTTELSSAERYN [M4T]" value_reported=3.15
residue_string="VQDMIYAVGGRDDTTELSSAERYN [Y1V]" value_reported=4.5
residue_string="YQDMIYAVGGRDDTTELSSAEIYN [R22I]" value_reported=2.16
residue_string="YQDMINAVGGRDDTTELSSAERYN [Y6N]" value_reported=3.98
residue_string="YNDMIYAVGGRDDTTELSSAERYN [Q2N]" value_reported=4.27
residue_string="YQDMIYAVMGRDDTTELSSAERYN [G9M]" value_reported=2.17
residue_string="YQDMIYAVGGRDDKTELSSAERYN [T14K]" value_reported=2.17
residue_string="YQDMIYAVGGRDDTTELCSAERYN [S18C]" value_reported=2.07
residue_string="YQDMIYAVGGKDDTTELSSAERYN [R11K]" value_reported=2.55
residue_string="YQDMIYAVNGRDDTTELSSAERYN [G9N]" value_reported=1.95
residue_string="YHDMIYAVGGRDDTTELSSAERYN [Q2H]" value_reported=2.83
residue_string="YPDMIYAVGGRDDTTELSSAERYN [Q2P]" value_reported=3.58
residue_string="YQDMIYAVGGRDDTTELSSAERYC [N24C]" value_reported=2.02
residue_string="LQDMIYAVGGRDDTTELSSAERYN [Y1L]" value_reported=4.26
residue_string="YQDMIYAVGGRDDTTELSSEERYN [A20E]" value_reported=3.06
residue_string="YQDMIYAVGGRDDTTELSSAIRYN [E21I]" value_reported=1.95
residue_string="YQDMIYAVGGRDDTTEQSSAERYN [L17Q]" value_reported=2.24
residue_string="YQDMIYAVGGRDDTTELYSAERYN [S18Y]" value_reported=2.22
residue_string="YQDMIYAVGGRDDTTRLSSAERYN [E16R]" value_reported=2.51
residue_string="YQDMIYAVGGRDDTTNLSSAERYN [E16N]" value_reported=2.38
residue_string="YQDMIYAVGGRDDTYELSSAERYN [T15Y]" value_reported=1.8
residue_string="YQDMIYAVSGRDDTTELSSAERYN [G9S]" value_reported=1.85
residue_string="YQDMIYAVGGRDDTTELSSAFRYN [E21F]" value_reported=2.28
residue_string="YQDMIYAVGGRDDTTELSSAERYR [N24R]" value_reported=2.7
residue_string="YQWMIYAVGGRDDTTELSSAERYN [D3W]" value_reported=2.03
residue_string="YQDHIYAVGGRDDTTELSSAERYN [M4H]" value_reported=2.55
residue_string="YQDMIYAVGPRDDTTELSSAERYN [G10P]" value_reported=2.44
residue_string="YQDMIYAHGGRDDTTELSSAERYN [V8H]" value_reported=2.84
residue_string="YQDMITAVGGRDDTTELSSAERYN [Y6T]" value_reported=3.94
residue_string="YQDMIYAVGGRDDTTELSSMERYN [A20M]" value_reported=2.38
residue_string="YQDMIYAVGGRDDTTELSSAERDN [Y23D]" value_reported=2.98
residue_string="YQDMIYAVGGRDDDTELSSAERYN [T14D]" value_reported=2.79
residue_string="YQDMIYAVGGRDDTTDLSSAERYN [E16D]" value_reported=2.34
residue_string="YQDMIYAVGGRDDTTELSSAERYY [N24Y]" value_reported=2.31
residue_string="YQDMIYAVGGRDDTTELSSAHRYN [E21H]" value_reported=2.04
residue_string="YQDMIYVVGGRDDTTELSSAERYN [A7V]" value_reported=2.16
residue_string="YQDMIYAVGGRDDTTELSSAEREN [Y23E]" value_reported=2.77
residue_string="YQDMIYAVGGRDDTTELSFAERYN [S19F]" value_reported=2.31
residue_string="YQDMIYAVGGTDDTTELSSAERYN [R11T]" value_reported=2.23
residue_string="YQDMIWAVGGRDDTTELSSAERYN [Y6W]" value_reported=2.51
residue_string="YQDMIYAVGGRDDTTELSSAEHYN [R22H]" value_reported=2.38
residue_string="YQDMIYANGGRDDTTELSSAERYN [V8N]" value_reported=2.81
residue_string="YQDMIYADGGRDDTTELSSAERYN [V8D]" value_reported=3.45
residue_string="YQDMIYAVGGRDDTTELVSAERYN [S18V]" value_reported=2.32
residue_string="YQDMIYAVGGRDITTELSSAERYN [D13I]" value_reported=2.26
residue_string="EQDMIYAVGGRDDTTELSSAERYN [Y1E]" value_reported=5.08
residue_string="YQDMIYAVGGRDDTTELSSAERYA [N24A]" value_reported=1.75
residue_string="YQDMIYAVGGRDDTTELSSADRYN [E21D]" value_reported=2.29
residue_string="YQDMKYAVGGRDDTTELSSAERYN [I5K]" value_reported=3.39
residue_string="YQDMIYAVGGRDDTTELSSAERYD [N24D]" value_reported=3.62
